SYSTEM_TESTED: ALK2 (Homo sapiens)
Sequence (Q04771 21-509): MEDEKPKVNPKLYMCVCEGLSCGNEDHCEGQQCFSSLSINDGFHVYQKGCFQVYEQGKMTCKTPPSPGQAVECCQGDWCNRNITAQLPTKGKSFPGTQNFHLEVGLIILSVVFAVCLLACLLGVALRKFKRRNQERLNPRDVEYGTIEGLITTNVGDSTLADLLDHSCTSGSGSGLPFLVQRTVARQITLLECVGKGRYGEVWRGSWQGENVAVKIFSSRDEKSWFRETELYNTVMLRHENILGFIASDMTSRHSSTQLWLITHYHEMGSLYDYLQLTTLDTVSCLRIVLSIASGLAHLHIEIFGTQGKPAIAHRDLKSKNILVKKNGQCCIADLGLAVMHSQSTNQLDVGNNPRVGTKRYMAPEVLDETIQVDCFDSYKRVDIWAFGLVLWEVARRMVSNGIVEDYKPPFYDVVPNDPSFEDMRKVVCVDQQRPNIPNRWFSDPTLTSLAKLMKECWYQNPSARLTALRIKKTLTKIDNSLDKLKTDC
ASSAY_METHOD_TEXT: TR-FRET enzymatic ALK kinase assay, ALK2
MEASUREMENT_TYPE: pIC50
Just so you know, pIC50 here is -log10 of the concentration in molar units; reply with that number alone.

Example results:
C[C@@H]1CNC[C@H](C)N1c1ccc(-c2cnc3c(-c4ccc([S+](N)(=O)[O-])c(C(F)(F)F)c4)cnn3c2)cc1; 6.42
C[C@H](O)c1cccc(-c2cnn3cc(-c4ccc(OC5(CN6CCCCC6)CC5)cc4)cnc23)c1; 7.60
C[C@@H](O)c1cccc(-c2cnn3cc(-c4ccc(CCN5CCOCC5)cc4)cnc23)c1; 6.60
CC(O)c1cccc(-c2cnn3cc(-c4ccc(C5CCCNC5)cc4)cnc23)c1 (stereo not drawn); 6.96

Query block: Give ALK2 (Homo sapiens) pIC50 for CC(O)c1cccc(-c2cnn3cc(-c4ccc(CCN5CCC(O)C5)cc4)cnc23)c1 (stereo not drawn)
Result block: 6.82

Query block: Give ALK2 (Homo sapiens) pIC50 for C[C@@H]1CNC[C@H](C)N1c1ccc(-c2cnc3c(-c4cccc5c(C#N)cccc45)cnn3c2)cc1
Result block: 7.57

Query block: Give ALK2 (Homo sapiens) pIC50 for CC1CCN(c2ccc(-c3cnc4c(-c5ccc(S(N)(=O)=O)c6ccccc56)cnn4c3)cn2)CC1
Result block: 5.54

Query block: Give ALK2 (Homo sapiens) pIC50 for C[S+](=O)([O-])c1cccc(-c2cnn3cc(-c4ccc(OC5(Cn6ccnc6)COC5)cc4)cnc23)c1
Result block: 7.02

Query block: Give ALK2 (Homo sapiens) pIC50 for C[C@@H](O)c1cccc(-c2cnn3cc(-c4ccc(CCN5CCC(O)C5)cc4)cnc23)c1 (stereo partly drawn)
Result block: 6.85

Query block: Give ALK2 (Homo sapiens) pIC50 for O=[S+]([O-])(c1cccc(-c2cnn3cc(-c4ccc(C5CCNCC5)cc4)cnc23)c1)C1CC1
Result block: 7.30

###

SYSTEM_TESTED: ALK3 (Homo sapiens, UniProt P36894)
Sequence (P36894 24-532): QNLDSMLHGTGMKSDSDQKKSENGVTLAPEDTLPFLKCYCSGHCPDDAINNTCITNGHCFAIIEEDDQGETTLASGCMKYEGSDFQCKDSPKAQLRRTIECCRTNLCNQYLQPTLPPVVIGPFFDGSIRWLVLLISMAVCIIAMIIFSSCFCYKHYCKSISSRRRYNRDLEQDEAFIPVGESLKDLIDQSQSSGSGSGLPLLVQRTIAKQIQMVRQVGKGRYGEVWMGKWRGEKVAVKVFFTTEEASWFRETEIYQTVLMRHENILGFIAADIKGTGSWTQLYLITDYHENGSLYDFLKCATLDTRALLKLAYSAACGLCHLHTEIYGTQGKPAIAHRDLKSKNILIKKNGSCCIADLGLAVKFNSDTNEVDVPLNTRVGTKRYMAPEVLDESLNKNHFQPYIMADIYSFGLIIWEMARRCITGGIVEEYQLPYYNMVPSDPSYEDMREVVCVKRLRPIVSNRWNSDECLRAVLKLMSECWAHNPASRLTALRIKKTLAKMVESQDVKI
ASSAY_METHOD_TEXT: TR-FRET enzymatic ALK kinase assay, ALK3
MEASUREMENT_TYPE: pIC50
Just so you know, pIC50 here is -log10 of the concentration in molar units; reply with that number alone.

Example results:
CC(O)c1cccc(-c2cnn3cc(-c4ccc(C5(N)CC5)cc4)cnc23)c1 (stereo not drawn); 5.27
NC(c1cccc(-c2cnn3cc(-c4ccc(OCCN5CCCCC5)cc4)cnc23)c1)C(F)(F)F (stereo not drawn); 5.37
C[C@@H]1CNC[C@H](C)N1c1ccc(-c2cnc3c(-c4ccc(N)c5ccccc45)cnn3c2)cc1; 6.05

Query block: Form field: reported pIC50 of C[C@@H]1CNC[C@H](C)N1c1ccc(-c2cnc3c(-c4cccc(C(C)(C)O)c4)cnn3c2)cc1
Result block: 6.51

Query block: Form field: reported pIC50 of N=C(N)c1ccc(-c2cnn3cc(-c4ccc(N5CCNCC5)cc4)cnc23)cc1
Result block: 4.75

Query block: Form field: reported pIC50 of C[C@@H]1CNC[C@H](C)N1c1ccc(-c2cnc3c(-c4cccc5c(C#N)cccc45)cnn3c2)cc1
Result block: 6.91

Query block: Form field: reported pIC50 of CC(O)c1cccc(-c2cnn3cc(-c4ccc(OC5(CN6CCC(O)CC6)CC5)cc4)cnc23)c1 (stereo not drawn)
Result block: 5.80

Query block: Form field: reported pIC50 of NS(=O)(=O)c1ccc(-c2cnn3cc(-c4ccc(OC5(CN6CCCCC6)COC5)cc4)cnc23)c2ccccc12
Result block: 5.74

Query block: Form field: reported pIC50 of CS(=O)(=O)c1cccc(-c2cnn3cc(-c4ccc(CCN5CCCCC5)cc4)cnc23)c1
Result block: 5.82

Query block: Form field: reported pIC50 of C[C@@H](O)c1cccc(-c2cnn3cc(-c4ccc(CCN5CCC(O)C5)cc4)cnc23)c1 (stereo partly drawn)
Result block: 5.14

Query block: Form field: reported pIC50 of NC(=O)c1cccc2c(-c3cnn4cc(-c5ccc(N6CCNCC6)cc5)cnc34)cccc12
Result block: 7.52

Query block: Form field: reported pIC50 of C[C@@H](O)c1cccc(-c2cnn3cc(-c4ccc(OCCN5CCCCC5)cc4)cnc23)c1
Result block: 5.17

Query block: Form field: reported pIC50 of CCS(=O)(=O)c1cccc(-c2cnn3cc(-c4ccc(CCN5CCCCC5)cc4)cnc23)c1
Result block: 5.66

Query block: Form field: reported pIC50 of CC(C)(CN1CCCCC1)Oc1ccc(-c2cnc3c(-c4cccc(S(N)(=O)=O)c4)cnn3c2)cc1
Result block: 5.31

Query block: Form field: reported pIC50 of CC(C)(CN1CCCCC1)Oc1ccc(-c2cnc3c(-c4cccc(S(C)(=O)=O)c4)cnn3c2)cc1
Result block: 5.68

###

Below, each entry is listed with its recorded pIC50.
SYSTEM_TESTED: ALK1 (Homo sapiens, UniProt P37023)
Sequence (P37023 22-503): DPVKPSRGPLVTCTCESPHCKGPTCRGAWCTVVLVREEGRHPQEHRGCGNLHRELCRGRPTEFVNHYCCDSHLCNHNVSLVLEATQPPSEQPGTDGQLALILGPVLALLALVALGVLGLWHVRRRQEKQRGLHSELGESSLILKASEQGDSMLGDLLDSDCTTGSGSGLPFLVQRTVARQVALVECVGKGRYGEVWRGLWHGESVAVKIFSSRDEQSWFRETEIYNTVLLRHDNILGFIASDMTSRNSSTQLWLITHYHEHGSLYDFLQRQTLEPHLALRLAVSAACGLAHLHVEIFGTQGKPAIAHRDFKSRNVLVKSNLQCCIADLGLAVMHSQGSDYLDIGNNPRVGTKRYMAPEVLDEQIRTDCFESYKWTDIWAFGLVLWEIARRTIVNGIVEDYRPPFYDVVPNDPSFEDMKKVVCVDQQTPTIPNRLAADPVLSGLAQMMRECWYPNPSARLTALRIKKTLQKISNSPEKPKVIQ
ASSAY_METHOD_TEXT: TR-FRET enzymatic ALK kinase assay, ALK1
Just so you know, pIC50 here is -log10 of the concentration in molar units; reply with that number alone.

CC(C)(CN1CCCCC1)Oc1ccc(-c2cnc3c(-c4ccc(S(N)(=O)=O)c5ccccc45)cnn3c2)cc1; 6.77

Next:
Query block: Form field: reported pIC50 of NS(=O)(=O)c1cccc(-c2cnn3cc(-c4ccc(C5CCNCC5)cc4)cnc23)c1
Result block: 6.28

###

Below, each entry is listed with its recorded IC50.
SYSTEM_TESTED: UniProtKB O00238
Sequence (O00238 14-502): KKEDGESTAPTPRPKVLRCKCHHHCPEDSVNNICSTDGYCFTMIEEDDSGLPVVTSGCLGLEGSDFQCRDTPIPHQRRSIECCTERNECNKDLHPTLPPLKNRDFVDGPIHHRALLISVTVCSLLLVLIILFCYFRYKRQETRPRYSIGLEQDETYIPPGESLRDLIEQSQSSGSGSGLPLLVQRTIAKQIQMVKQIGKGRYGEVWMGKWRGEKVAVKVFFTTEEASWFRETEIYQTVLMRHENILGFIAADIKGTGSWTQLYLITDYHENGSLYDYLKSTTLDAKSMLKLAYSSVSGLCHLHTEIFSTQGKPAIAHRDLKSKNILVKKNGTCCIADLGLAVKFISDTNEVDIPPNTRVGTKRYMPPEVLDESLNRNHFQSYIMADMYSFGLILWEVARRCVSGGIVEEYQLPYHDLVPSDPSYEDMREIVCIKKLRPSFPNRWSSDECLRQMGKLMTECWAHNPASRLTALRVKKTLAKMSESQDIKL
ASSAY_METHOD_TEXT: TR-FRET enzymatic ALK kinase assay, ALK6

Example results:
CC(O)c1cccc(-c2cnn3cc(-c4ccc(C5CCCCN5)cc4)cnc23)c1 (stereo not shown); > 10 µM
CS(=O)(=O)c1cccc(-c2cnn3cc(-c4ccc(C(F)(F)CN5CCOCC5)cc4)cnc23)c1; > 10 µM
C[S+](=O)([O-])c1cccc(-c2cnn3cc(-c4ccc(OC5(CN6CCOCC6)CC5)cc4)cnc23)c1; 3.6 µM

Query block: Form field: reported IC50 of C[S+](=O)([O-])c1cccc(-c2cnn3cc(-c4ccc(CCN5CCC6(CC5)CNC6)cc4)cnc23)c1
Result block: > 10 µM

Query block: Form field: reported IC50 of c1cc(-c2nn[nH]n2)cc(-c2cnn3cc(-c4ccc(CCN5CCCCC5)cc4)cnc23)c1
Result block: > 10 µM

Query block: Form field: reported IC50 of C[C@@H](O)c1cccc(-c2cnn3cc(-c4ccc(CCN5CCCC(O)C5)cc4)cnc23)c1 (stereo partly shown)
Result block: > 10 µM

Query block: Form field: reported IC50 of CC1CCN(c2ccc(-c3cnc4c(-c5ccc(S(N)(=O)=O)c6ccccc56)cnn4c3)cn2)CC1
Result block: > 10 µM

###

SYSTEM_TESTED: ALK4 (Homo sapiens)
Sequence (P36896 24-505): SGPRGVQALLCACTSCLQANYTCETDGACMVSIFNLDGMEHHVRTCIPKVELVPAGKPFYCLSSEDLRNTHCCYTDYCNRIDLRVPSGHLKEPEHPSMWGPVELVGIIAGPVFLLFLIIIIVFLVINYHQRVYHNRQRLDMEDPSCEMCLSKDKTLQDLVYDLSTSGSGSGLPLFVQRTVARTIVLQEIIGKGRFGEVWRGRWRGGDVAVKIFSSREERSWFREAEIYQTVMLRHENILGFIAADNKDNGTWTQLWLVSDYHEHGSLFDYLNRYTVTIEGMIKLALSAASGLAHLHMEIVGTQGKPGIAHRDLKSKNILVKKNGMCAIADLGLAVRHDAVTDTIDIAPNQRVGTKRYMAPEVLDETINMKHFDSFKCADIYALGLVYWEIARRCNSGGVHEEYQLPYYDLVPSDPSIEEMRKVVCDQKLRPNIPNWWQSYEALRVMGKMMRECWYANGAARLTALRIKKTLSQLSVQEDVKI
ASSAY_METHOD_TEXT: TR-FRET enzymatic ALK kinase assay, ALK4
pIC50: −log10 of the molar value.
Below, each entry is listed with its recorded pIC50.

Example results:
CC(N)c1ccc(-c2cnc3c(-c4cccc(C(C)O)c4)cnn3c2)cc1 (stereo not drawn) [Compound 188]; 5.39
C[C@@H]1CNC[C@H](C)N1c1ccc(-c2cnc3c(-c4cc(C#N)cc(S(N)(=O)=O)c4)cnn3c2)cc1 [Compound 79]; < 5.00
CC(O)c1cccc(-c2cnn3cc(-c4ccc(OC5(CN6CCNCC6)CC5)cc4)cnc23)c1 (stereo not drawn) [Compound 168]; < 5.00
C[C@@H]1CNC[C@H](C)N1c1ccc(-c2cnc3c(-c4ccc(CS(N)(=O)=O)cc4)cnn3c2)cc1 [Compound 71]; < 5.00
NC(c1cccc(-c2cnn3cc(-c4ccc(OC5(CN6CCC(O)CC6)CC5)cc4)cnc23)c1)C(F)(F)F (stereo not drawn) [Compound 180]; < 5.00

Query block: Form field: reported pIC50 of CC(O)c1cccc(-c2cnn3cc(-c4ccc(C5(C)CCNCC5)cc4)cnc23)c1 (stereo not drawn) [Compound 136]
Result block: < 5.00

Query block: Form field: reported pIC50 of CS(=O)(=O)c1cccc(-c2cnn3cc(-c4ccc(C5CCNC5)cc4)cnc23)c1 (stereo not drawn) [Compound 129]
Result block: < 5.00

Origin of the recorded values: patent US10513521B2
